Where do these numbers come from? They come from paper PMC12209146.

# experimentDescription: in vitro
# Format: in vitro ADME, human
# experimentalConditions: human plasma spiked with 20 µM, 37 °C, aliquots at 0, 15, 30, 60, 120 min, 0.1% TFA in acetonitrile, MALDI-TOF MS peak area, one-phase decay fit, n = 3 per time point
No end group written: not given here.
reportedMetric: half-life at 20 µM (min)
Dear colleague, please return just the value in min, with no unit written.

Consider KFINIFIHGNKRSIKAI [Angie 5] . Its measured half-life at 20 µM is 5.44

====

# measuredOn: TcdB (Clostridioides difficile, UniProt P18177)
# Sequence (P18177 2-2366 limits assumed): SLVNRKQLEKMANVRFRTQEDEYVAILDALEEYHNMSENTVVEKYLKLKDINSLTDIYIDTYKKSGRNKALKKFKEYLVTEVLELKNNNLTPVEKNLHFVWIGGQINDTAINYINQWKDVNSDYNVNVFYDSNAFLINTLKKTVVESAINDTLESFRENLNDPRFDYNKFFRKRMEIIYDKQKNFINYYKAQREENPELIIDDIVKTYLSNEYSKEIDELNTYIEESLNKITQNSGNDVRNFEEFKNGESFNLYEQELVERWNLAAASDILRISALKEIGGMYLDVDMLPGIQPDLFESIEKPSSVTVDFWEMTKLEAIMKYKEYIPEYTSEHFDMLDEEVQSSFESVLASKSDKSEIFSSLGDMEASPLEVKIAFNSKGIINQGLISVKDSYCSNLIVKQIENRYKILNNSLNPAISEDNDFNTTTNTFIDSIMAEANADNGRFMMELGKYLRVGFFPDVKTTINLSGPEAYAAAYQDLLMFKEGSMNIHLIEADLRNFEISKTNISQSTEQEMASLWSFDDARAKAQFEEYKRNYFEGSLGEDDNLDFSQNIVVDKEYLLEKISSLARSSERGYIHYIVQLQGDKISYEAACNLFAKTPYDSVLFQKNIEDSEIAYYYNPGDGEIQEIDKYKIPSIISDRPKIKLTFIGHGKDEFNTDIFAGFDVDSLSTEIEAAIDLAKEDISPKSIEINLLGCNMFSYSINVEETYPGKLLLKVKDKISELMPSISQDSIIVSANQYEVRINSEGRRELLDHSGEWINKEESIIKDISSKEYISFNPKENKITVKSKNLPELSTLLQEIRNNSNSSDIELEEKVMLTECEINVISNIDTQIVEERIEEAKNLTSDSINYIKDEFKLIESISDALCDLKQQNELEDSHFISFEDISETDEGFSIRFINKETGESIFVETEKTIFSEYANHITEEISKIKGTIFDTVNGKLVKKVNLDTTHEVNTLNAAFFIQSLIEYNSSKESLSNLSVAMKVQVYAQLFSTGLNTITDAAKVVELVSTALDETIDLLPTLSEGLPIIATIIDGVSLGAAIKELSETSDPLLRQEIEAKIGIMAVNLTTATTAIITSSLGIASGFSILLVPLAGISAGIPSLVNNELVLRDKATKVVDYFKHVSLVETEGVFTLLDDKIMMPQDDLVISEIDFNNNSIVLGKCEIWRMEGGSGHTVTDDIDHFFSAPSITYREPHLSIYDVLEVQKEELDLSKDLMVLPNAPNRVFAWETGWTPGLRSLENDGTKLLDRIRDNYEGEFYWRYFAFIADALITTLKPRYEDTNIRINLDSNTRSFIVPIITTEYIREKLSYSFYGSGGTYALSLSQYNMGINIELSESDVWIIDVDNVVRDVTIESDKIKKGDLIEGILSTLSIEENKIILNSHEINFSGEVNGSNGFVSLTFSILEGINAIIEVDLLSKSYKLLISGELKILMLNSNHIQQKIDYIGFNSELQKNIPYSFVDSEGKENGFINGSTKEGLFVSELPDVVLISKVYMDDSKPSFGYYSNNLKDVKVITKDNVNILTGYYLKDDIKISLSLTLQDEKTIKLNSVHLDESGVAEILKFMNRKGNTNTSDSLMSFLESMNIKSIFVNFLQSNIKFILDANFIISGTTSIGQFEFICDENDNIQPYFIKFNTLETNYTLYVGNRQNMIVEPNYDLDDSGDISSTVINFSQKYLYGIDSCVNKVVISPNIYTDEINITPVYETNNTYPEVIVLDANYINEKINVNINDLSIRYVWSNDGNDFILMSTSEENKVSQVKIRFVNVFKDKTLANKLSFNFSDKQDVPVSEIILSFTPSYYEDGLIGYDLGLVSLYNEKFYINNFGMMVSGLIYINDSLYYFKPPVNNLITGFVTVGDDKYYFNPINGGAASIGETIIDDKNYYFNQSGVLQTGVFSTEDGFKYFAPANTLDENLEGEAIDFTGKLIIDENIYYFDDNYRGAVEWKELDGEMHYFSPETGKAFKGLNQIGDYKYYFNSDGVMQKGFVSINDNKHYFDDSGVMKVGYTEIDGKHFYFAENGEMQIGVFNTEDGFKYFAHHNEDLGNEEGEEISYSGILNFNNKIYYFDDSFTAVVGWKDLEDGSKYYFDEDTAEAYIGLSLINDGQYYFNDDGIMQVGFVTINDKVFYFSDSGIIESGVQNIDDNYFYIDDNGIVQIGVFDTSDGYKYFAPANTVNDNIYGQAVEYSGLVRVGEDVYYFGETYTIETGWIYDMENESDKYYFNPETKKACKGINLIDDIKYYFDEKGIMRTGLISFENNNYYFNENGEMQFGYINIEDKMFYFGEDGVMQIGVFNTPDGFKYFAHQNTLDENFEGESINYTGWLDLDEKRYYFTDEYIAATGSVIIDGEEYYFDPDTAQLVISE
# experimentalConditions: 100 µM peptide, 200 pM TcdB, added simultaneously, FCS-free medium, 7 h, 37 °C; n = 9
No end group written: not given here.
reportedMetric: Protection from TcdB-mediated cell rounding, CaCo-2 cells

residues | value
KGINTFIHGNKRSIKAI [Angie 6] | did not inhibit
KDINTFIHGNKRSIKAI [reference Angie] | did not inhibit
KLINTFIHGNKRSIKAI [Angie 7] | did not inhibit
